meta.source: paper PMC6696238

melting point values by entry

{"Compound": "COc1ccc2nc(NC(=O)Nc3ccc(O)c(C(C)(C)C)c3)sc2c1 [Compound 3]", "melting point": "259 to 260 °C"}
{"Compound": "COc1ccc2nc(NC(=O)NCc3ccc(O)c(O)c3)sc2c1 [Compound 29]", "melting point": "141.5 to 142 °C"}

Consider now this further compound.
Reported melting point, compound CC(C)c1ccc2nc(NC(=O)Nc3ccc(O)c(Cl)c3)sc2c1 [Compound 61] : ____
246 to 248 °C

----------
melting point values by entry

{"Molecular String": "COc1ccc2nc(NC(=O)N(C)c3ccc(O)c(Cl)c3)sc2c1", "Value Observed": "220 °C (dec.)"}
{"Molecular String": "COc1ccc2nc(NC(=O)Nc3ccc(O)c(C#N)c3)sc2c1", "Value Observed": "277 to 279 °C"}
{"Molecular String": "CN(C(=O)Nc1ccc(O)c(Cl)c1)c1nc2ccccc2s1", "Value Observed": "171 to 172 °C"}
{"Molecular String": "CN(C(=O)Nc1nc2ccccc2s1)c1ccc(O)c(Cl)c1", "Value Observed": "139 to 141 °C"}
{"Molecular String": "COc1ccc2nc(NC(=O)Nc3ccc(N)cc3)sc2c1", "Value Observed": "304 to 306 °C (dec.)"}

Consider now this further molecule.
Reported melting point, molecule CC(C)(C)c1ccc2nc(NC(=O)Nc3ccc(O)c(Cl)c3)sc2c1 : ____
238 to 240 °C
